Biological target: T1, IFN-γ (human, UniProt P01579 24-166, limits assumed)
T1 sequence (looked up): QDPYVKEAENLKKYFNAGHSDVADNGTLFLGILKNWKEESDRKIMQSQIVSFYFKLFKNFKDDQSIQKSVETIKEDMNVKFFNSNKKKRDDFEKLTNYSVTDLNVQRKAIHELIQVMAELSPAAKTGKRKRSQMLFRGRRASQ
Experiment: cell-based or functional assay
ENDPOINT_NAME: IC50, A549 cell proliferation assay (ALAMARBLUE); sample stored 3 months at pH 5, 4° C. (µg/mL)
Express the result in µg/mL but write the number alone.

Form field IC50, A549 cell proliferation assay (ALAMARBLUE); sample stored 3 months at pH 5, 4° C., entry full length human IgG1 antibody against human IFN-γ, filtered purified bulk (FPB) (antibody, V domains shown, N-glycan sites at amino acids 28 and 297 of SEQ ID NO:17 (VH and CH2); heterogeneously sialylated) VH: EVQLVQSGAEVKKPGESLKISCKGSGYNFTSYWIGWVRQMPGKGLELMGIIYPGDSDTRYSPSFQGQVTISADKSISTAYLQWSSLKASDTAMYYCGSGSYFYFDLWGRGTLVTVSS VL: EIVLTQSPGTLSLSPGERATLSCRASQSVSSSYLAWYQQKPGQAPRLLIYGASSRATGIPDRFSGSGSGTDFTLTISRLEPEDFAVYYCQRSGGSSFTFGPGTKVDIKR : 0.0023

Form field IC50, A549 cell proliferation assay (ALAMARBLUE); sample stored 3 months at pH 5, 4° C., entry full length human IgG1 antibody against human IFN-γ, purified isoform Peak -1 (antibody, V domains shown, N-glycan sites at amino acids 28 and 297 of SEQ ID NO:17 (VH and CH2); sialylation isoform Peak -1) VH: EVQLVQSGAEVKKPGESLKISCKGSGYNFTSYWIGWVRQMPGKGLELMGIIYPGDSDTRYSPSFQGQVTISADKSISTAYLQWSSLKASDTAMYYCGSGSYFYFDLWGRGTLVTVSS VL: EIVLTQSPGTLSLSPGERATLSCRASQSVSSSYLAWYQQKPGQAPRLLIYGASSRATGIPDRFSGSGSGTDFTLTISRLEPEDFAVYYCQRSGGSSFTFGPGTKVDIKR : 0.003

Form field IC50, A549 cell proliferation assay (ALAMARBLUE); sample stored 3 months at pH 5, 4° C., entry full length human IgG1 antibody against human IFN-γ, purified isoform Peak 0 (antibody, V domains shown, N-glycan sites at amino acids 28 and 297 of SEQ ID NO:17 (VH and CH2); sialylation isoform Peak 0) VH: EVQLVQSGAEVKKPGESLKISCKGSGYNFTSYWIGWVRQMPGKGLELMGIIYPGDSDTRYSPSFQGQVTISADKSISTAYLQWSSLKASDTAMYYCGSGSYFYFDLWGRGTLVTVSS VL: EIVLTQSPGTLSLSPGERATLSCRASQSVSSSYLAWYQQKPGQAPRLLIYGASSRATGIPDRFSGSGSGTDFTLTISRLEPEDFAVYYCQRSGGSSFTFGPGTKVDIKR : 0.0024
